- test.target: Mu-type opioid receptor (Homo sapiens, UniProt P35372)
- Sequence (P35372 whole entry): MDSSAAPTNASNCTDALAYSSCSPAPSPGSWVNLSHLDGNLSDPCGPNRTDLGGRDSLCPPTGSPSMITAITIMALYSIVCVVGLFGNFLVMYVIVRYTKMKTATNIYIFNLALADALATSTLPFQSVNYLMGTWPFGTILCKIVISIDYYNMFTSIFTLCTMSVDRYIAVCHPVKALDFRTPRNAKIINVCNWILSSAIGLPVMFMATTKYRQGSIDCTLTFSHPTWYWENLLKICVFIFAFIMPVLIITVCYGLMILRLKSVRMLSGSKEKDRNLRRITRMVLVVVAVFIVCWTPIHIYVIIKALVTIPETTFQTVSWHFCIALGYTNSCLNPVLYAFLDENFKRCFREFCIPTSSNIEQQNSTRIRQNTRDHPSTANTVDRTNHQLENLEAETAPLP
- protocol.text: Antagonist activity at human mu opioid receptor expressed in CHO cells assessed as [35S]GTPgammaS binding by SPA
parameter.measured: Ki (nM)

>>> df
                                   compound  parameter_measured  numeric_result
0  Cc1cc(CNCCC2=CCCCC2)ccc1N1CCCc2cc(C(N)=O)ccc21                  Ki            12.6
1  NC(=O)c1ccc2c(c1)CCCN2c1ccc(CNCC2CCCCC2)cc1                  Ki            39.8

[A] NC(=O)c1ccc2c(c1)CCCN2c1cccc(C(=O)NCCC2=CCCCC2)c1
[B] NC(=O)c1ccc2c(c1)CCCN2c1ccc(CNC2Cc3ccc(F)cc3C2)cc1 (stereo not given)
[ask] I'm curious, which of these has a smaller Ki number: A or B ? Mark your answer with the label of the selected entry.
[reply] B
(B: 12.6 nM, A: 2000 nM)

The origin of these recorded values is ChEMBL document CHEMBL1641476.
